Source listed as the kinase profiling compilation of Christmann-Franck et al. (2016).

# Study System: UniProtKB O43293
# Sequence (O43293 whole entry, looked up): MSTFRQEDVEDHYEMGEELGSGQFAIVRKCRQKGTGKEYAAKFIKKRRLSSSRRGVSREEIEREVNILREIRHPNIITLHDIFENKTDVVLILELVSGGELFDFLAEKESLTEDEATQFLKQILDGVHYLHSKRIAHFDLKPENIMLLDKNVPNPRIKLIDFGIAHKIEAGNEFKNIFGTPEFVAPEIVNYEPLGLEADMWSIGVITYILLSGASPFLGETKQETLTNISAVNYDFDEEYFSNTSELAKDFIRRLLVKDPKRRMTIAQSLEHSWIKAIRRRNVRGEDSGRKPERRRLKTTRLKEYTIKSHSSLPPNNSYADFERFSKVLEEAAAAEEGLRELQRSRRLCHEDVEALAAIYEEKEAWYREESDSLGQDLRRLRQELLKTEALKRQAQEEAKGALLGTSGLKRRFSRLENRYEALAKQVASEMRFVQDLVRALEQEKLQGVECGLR
# Assay Procedure: radiometric filter-binding kinase assay, Kinase HotSpot
# Applied Conditions: compound 0.5 µM; ATP 10 µM
Kindly state residual activity for each of the entries shown.
Record the result as number plus unit.

Which residual activity value belongs to `CCn1cnc2c(Nc3cccc(Cl)c3)nc(N[C@@H]3CCCC[C@@H]3N)nc21` ?
105%

Which residual activity value belongs to `COc1ccc(CNC(=O)Nc2ncc([N+](=O)[O-])s2)cc1` ?
106%

Which residual activity value belongs to `Cn1sc(=O)n(Cc2ccccc2)c1=O` ?
103%

Which residual activity value belongs to `COc1cc2ncnc(N3CCN(C(=O)Nc4ccc(Oc5ccccc5)cc4)CC3)c2cc1OC` ?
101%

Which residual activity value belongs to `CN(C)C[C@H]1CCn2c(c(C3=C(c4cn(C)c5ccccc45)C(=O)NC3=O)c3ccccc32)C1` ?
95.2%

Which residual activity value belongs to `Cn1nc2c3c(cccc31)C(=O)c1ccccc1-2` ?
102%

Which residual activity value belongs to `O=C(CCCc1ccc(-c2ccccc2F)cc1)Nc1ccc(O)cc1` ?
104%

Which residual activity value belongs to `CN([C@@H](Cc1ccc(OS(=O)(=O)c2cccc3cnccc23)cc1)C(=O)N1CCN(c2ccccc2)CC1)S(=O)(=O)c1cccc2cnccc12` ?
106%

Which residual activity value belongs to `O=C1NC(=O)/C(=C\c2ccc3nccnc3c2)S1` ?
93.3%

Which residual activity value belongs to `COc1cc2ncc(-c3ccccc3)nc2cc1OC` ?
84.7%

---

# Study System: SRC (human) (UniProt P12931)
# Sequence (P12931 whole entry, looked up): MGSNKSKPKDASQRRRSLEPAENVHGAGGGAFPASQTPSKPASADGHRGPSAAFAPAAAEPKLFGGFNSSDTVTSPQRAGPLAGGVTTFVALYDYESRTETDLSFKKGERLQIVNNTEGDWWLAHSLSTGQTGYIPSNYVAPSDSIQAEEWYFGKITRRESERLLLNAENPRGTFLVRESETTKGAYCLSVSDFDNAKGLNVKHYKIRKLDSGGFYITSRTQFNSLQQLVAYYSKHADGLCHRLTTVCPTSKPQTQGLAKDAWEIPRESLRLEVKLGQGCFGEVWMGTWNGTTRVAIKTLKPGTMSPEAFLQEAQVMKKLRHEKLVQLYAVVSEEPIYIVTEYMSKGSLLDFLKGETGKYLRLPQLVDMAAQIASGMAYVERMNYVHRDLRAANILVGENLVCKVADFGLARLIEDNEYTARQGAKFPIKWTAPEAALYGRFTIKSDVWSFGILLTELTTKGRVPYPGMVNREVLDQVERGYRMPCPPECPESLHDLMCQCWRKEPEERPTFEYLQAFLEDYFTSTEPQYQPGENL
# Assay Procedure: radiometric filter-binding kinase assay, Kinase HotSpot
# Applied Conditions: compound 0.5 µM; ATP 10 µM
Kindly state residual activity for each of the entries shown.
Record the result as number plus unit.

Which residual activity value belongs to O=C1Nc2ccccc2/C1=C1/Nc2ccccc2/C1=N\OCCC(O)CO (stereo not drawn) ?
22.6%

Which residual activity value belongs to `CC(=O)O/N=C1\C(=C2\C(=O)Nc3cc(Br)ccc32)Nc2ccccc21` ?
26.2%

Which residual activity value belongs to `O=C(Nc1cccc(Nc2cc(Nc3cccc(C(F)(F)F)c3)ncn2)c1)C1CC1` ?
102%

---

# Study System: SRPK1 (human) (UniProt Q96SB4)
# Sequence (Q96SB4 whole entry, looked up): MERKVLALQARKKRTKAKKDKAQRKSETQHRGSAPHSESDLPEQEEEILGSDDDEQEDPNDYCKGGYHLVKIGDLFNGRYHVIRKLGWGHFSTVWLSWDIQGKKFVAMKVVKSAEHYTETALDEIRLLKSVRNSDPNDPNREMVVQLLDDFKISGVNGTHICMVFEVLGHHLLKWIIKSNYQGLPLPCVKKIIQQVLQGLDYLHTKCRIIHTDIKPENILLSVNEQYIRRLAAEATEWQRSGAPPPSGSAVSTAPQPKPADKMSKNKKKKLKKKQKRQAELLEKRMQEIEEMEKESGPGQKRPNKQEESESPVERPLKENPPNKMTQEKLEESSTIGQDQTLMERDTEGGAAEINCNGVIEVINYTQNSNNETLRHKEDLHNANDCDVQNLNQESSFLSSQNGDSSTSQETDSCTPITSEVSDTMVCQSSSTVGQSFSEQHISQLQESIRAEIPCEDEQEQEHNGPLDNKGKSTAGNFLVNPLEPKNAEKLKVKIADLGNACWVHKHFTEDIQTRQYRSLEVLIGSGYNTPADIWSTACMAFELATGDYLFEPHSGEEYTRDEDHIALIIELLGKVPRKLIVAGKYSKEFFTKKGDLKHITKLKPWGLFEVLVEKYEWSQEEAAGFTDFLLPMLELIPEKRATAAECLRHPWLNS
# Assay Procedure: radiometric filter-binding kinase assay, Kinase HotSpot
# Applied Conditions: compound 0.5 µM; ATP 10 µM
Property: residual activity (%)
Please reply with the bare figure in % and do not write the unit itself.

Which residual activity value belongs to `CC(=O)O/N=C1\C(=C2\C(=O)Nc3cc(Br)ccc32)Nc2ccccc21` ?
96.7

Which residual activity value belongs to `O=C1NC(=O)C(c2cn(CCCO)c3ncccc23)=C1c1cnccn1` ?
98

Which residual activity value belongs to `Cn1sc(=O)n(Cc2ccccc2)c1=O` ?
89.8

Which residual activity value belongs to `Oc1ccc(Nc2nc(-c3ccc(Cl)cc3)cs2)cc1` ?
103

Which residual activity value belongs to `O=C1NC(=O)C(c2c[nH]c3ccccc23)=C1c1c[nH]c2ccccc12` ?
89.4

Which residual activity value belongs to O=C1Nc2ccccc2/C1=C1/Nc2ccccc2/C1=N\OCCC(O)CO (stereo unspecified) ?
71.3

---

# Study System: UniProt:P23443
# Sequence (P23443 whole entry, looked up): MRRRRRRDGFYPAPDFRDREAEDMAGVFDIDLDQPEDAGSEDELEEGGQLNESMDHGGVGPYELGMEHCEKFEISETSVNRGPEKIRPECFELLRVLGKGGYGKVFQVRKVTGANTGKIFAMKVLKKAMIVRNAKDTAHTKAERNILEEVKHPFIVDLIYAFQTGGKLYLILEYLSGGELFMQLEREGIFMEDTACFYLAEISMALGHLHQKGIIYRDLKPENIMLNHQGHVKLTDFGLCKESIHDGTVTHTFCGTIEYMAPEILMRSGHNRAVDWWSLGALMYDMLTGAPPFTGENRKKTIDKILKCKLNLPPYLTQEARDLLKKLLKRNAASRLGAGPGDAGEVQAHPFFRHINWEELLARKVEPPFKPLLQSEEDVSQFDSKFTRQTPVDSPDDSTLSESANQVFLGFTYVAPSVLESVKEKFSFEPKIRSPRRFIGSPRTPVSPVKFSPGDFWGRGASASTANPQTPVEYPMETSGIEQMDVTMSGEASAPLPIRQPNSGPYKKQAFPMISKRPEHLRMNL
# Assay Procedure: radiometric filter-binding kinase assay, Kinase HotSpot
# Applied Conditions: compound 0.5 µM; ATP 10 µM
Kindly state residual activity for each of the entries shown.
Please reply with the bare figure in % and do not write the unit itself.

Which residual activity value belongs to `O=C1Nc2ccccc2/C1=C1\Nc2ccccc2\C1=N/O` ?
75.9

Which residual activity value belongs to `COc1cc2ncnc(N3CCN(C(=O)Nc4ccc(Oc5ccccc5)cc4)CC3)c2cc1OC` ?
89.4

Which residual activity value belongs to `O=C(O)/C=C/c1cc(Br)c(Br)c(Br)c1Br` ?
91.4

Which residual activity value belongs to `CC(C)c1nn(-c2c(Cl)cccc2Cl)c2nc(Cc3ccc(OCCO)cc3)nc(O)c12` ?
94.8
